# Test Summary: G protein-coupled receptor (GPCR) small molecule agonists, calcium flux assay: HEK293 wild type cell line counter screen (AID 1920065)
# Setup Conditions: HEK293 WT calcium flux, fluorescence, agonist mode; series mostly up to 57.6 µM
Activity calls are given as the source filed them. Calls follow the shape of the full dose curve.
Quantity: activation

Task: Quick check: activation of S=C=NCc1ccccc1 ?
Result: inactive

Task: Quick check: activation of CC(C)CBr ?
Result: inactive

Task: Quick check: activation of Cc1c(COC(=O)[C@@H]2[C@H](/C=C(\Cl)C(F)(F)F)C2(C)C)cccc1-c1ccccc1 ?
Result: inactive

Task: Quick check: activation of COc1cc(OC)nc(NC(=O)NS(=O)(=O)c2ncccc2OCC(F)(F)F)n1 ?
Result: inactive

Task: Quick check: activation of CCOP(=S)(Oc1cnc(C(C)(C)C)nc1)OC(C)C (stereo unspecified) ?
Result: inactive

Task: Quick check: activation of CCOC1Oc2ccc(OS(C)(=O)=O)cc2C1(C)C (stereo unspecified) ?
Result: inactive

---
Task: Quick check: activation of CCOC(=O)c1ncn2c1CN(C)C(=O)c1c(I)cccc1-2 ?
Result: inactive

Task: Quick check: activation of CN1C2CCC(C)(C)C1CC(OC(=O)C(O)(c1cccs1)c1cccs1)C2 (stereo unspecified) ?
Result: inactive

Task: Quick check: activation of COc1cccc(C(=O)CCN[C@@H](C)[C@H](O)c2ccccc2)c1 ?
Result: inactive
